The measurements presented in this section are drawn from patent US4916214A.

test: Animal biodistribution of 99mTc complexes in guinea pigs;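 note: Heart, liver and kidney plus urine values are percent of the injected material, background-corrected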
Assay type: in vivo, guinea pig
condition_set: guinea pig, 60 min p.i. in vivo, mean
Reported values of Heart/Lung Counts/Gram ratio for individual entries

{"molecule": "COC(CC(OC)P(C)C)P(C)C.COC(CC(OC)P(C)C)P(C)C.O=[N][99Tc+][Cl].[Cl-] (stereo not shown)", "Heart/Lung Counts/Gram ratio": 1.3}
{"molecule": "COC(CC(OC)P(C)C)P(C)C.COC(CC(OC)P(C)C)P(C)C.COC(CC(OC)P(C)C)P(C)C.[99Tc+] (stereo not shown)", "Heart/Lung Counts/Gram ratio": 0.4}
{"molecule": "COCC(COC)(CP(C)C)CP(C)C.COCC(COC)(CP(C)C)CP(C)C.COCC(COC)(CP(C)C)CP(C)C.[99Tc+]", "Heart/Lung Counts/Gram ratio": 1.9}
{"molecule": "COCC(COC)(CP(C)C)CP(C)C.COCC(COC)(CP(C)C)CP(C)C.O=[N][99Tc+][Cl].[Cl-]", "Heart/Lung Counts/Gram ratio": 2.0}
